# Target Or Test System: T1, Human Serum Albumin (human, UniProt P02768 25-609)
# T1 construct: also called HSA; antigen
# T1 sequence (P02768 25-609 limits assumed): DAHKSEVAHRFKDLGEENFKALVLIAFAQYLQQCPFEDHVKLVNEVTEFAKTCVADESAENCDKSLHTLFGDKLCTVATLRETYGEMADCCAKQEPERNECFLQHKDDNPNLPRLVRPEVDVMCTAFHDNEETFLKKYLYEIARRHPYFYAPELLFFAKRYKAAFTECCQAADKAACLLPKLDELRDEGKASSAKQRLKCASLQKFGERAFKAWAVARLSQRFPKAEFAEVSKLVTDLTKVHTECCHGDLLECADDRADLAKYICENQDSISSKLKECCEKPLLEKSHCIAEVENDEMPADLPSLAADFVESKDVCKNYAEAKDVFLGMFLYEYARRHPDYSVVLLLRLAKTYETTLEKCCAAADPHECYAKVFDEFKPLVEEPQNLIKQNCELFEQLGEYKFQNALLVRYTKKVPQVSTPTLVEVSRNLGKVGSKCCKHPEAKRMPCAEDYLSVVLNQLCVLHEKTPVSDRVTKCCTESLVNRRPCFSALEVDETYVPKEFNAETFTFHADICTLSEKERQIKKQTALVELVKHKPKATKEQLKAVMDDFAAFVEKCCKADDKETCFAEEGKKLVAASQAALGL
# Method Notes: BIAcore, supernatant over immobilised HSA (6036 RU);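 also: expressed culture supernatants of mutant clones diluted 1:1 in HBS-EP buffer and screened for binding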
Metric: binding result

Binder	Metric	Data Value
DOM7h-14 (other, also called 7h14 wt) VL: DIQMTQSPSSLSASVGDRVTITCRASQWIGSQLSWYQQKPGKAPKLLIMWRSSLQSGVPSRFSGSGSGTDFTLTISSLQPEDFATYYCAQGAALPRTFGQGTKVEIKR	binding result	binds
DOM7h-14 Q38W (other) VL: DIQMTQSPSSLSASVGDRVTITCRASQWIGSQLSWYQWKPGKAPKLLIMWRSSLQSGVPSRFSGSGSGTDFTLTISSLQPEDFATYYCAQGAALPRTFGQGTKVEIKR	binding result	binds
